Assay: Pilot pharmacokinetic and tissue distribution study in mice after oral EAI045
Format: in vivo, mouse (FVB/NRj wild-type, female)
Conditions: female, FVB/NRj, mouse, brain, po, 20 mg/kg
quantity: concentration at 4 h (ng/g)
Write it as a number; the unit ng/g goes unstated.

# get_value(readout='concentration at 4 h', item= O=C(O)C(c1cc(F)ccc1O)N1Cc2ccccc2C1=O (stereo not shown) ) 9.8

* * *

Assay: Pilot pharmacokinetic and tissue distribution study in mice after oral EAI045
Type: in vivo, mouse (FVB/NRj wild-type, female)
Conditions: female, FVB/NRj, mouse, plasma, po, 20 mg/kg
quantity: half-life (h)
Write it as a number; the unit h goes unstated.

# get_value(readout='half-life', item= O=C(O)C(c1cc(F)ccc1O)N1Cc2ccccc2C1=O (stereo not shown) [PIA] ) 1.17

* * *

Assay: Pilot pharmacokinetic and tissue distribution study in mice after oral EAI045
Format: in vivo, mouse (FVB/NRj wild-type, female)
Conditions: female, FVB/NRj, mouse, plasma, po, 20 mg/kg
quantity: Tmax

# get_value(readout='Tmax', item= O=C(O)C(c1cc(F)ccc1O)N1Cc2ccccc2C1=O (stereo not shown) ) 15 to 30 min

* * *

Assay: Short-term stability in mouse tissue homogenates
Format: in vitro ADME
Conditions: lung homogenate
quantity: recovery at 5 h, 100 ng/ml (%)
Write it as a number; the unit % goes unstated.

# get_value(readout='recovery at 5 h, 100 ng/ml', item= O=C(O)C(c1cc(F)ccc1O)N1Cc2ccccc2C1=O (stereo not shown) [PIA] ) 107

* * *

Assay: Pilot pharmacokinetic and tissue distribution study in mice after oral EAI045
Assay type: in vivo, mouse (FVB/NRj wild-type, female)
Details: female, FVB/NRj, mouse, plasma, po, 20 mg/kg
quantity: AUC(0-t) (ng·h/mL)
Write it as a number; the unit ng·h/mL goes unstated.

# get_value(readout='AUC(0-t)', item= O=C(O)C(c1cc(F)ccc1O)N1Cc2ccccc2C1=O (stereo not shown) ) 1870

* * *

Assay: Pilot pharmacokinetic and tissue distribution study in mice after oral EAI045
Type: in vivo, mouse (FVB/NRj wild-type, female)
Conditions: female, FVB/NRj, mouse, plasma, po, 20 mg/kg
quantity: Cmax (µg/mL)
Write it as a number; the unit µg/mL goes unstated.

# get_value(readout='Cmax', item= O=C(O)C(c1cc(F)ccc1O)N1Cc2ccccc2C1=O (stereo not shown) ) 1.52

* * *

Test: Stability in mouse plasma QC samples
Assay type: in vitro ADME
quantity: recovery at 5 h, 6 ng/ml (%)
Write it as a number; the unit % goes unstated.

# get_value(readout='recovery at 5 h, 6 ng/ml', item= O=C(O)C(c1cc(F)ccc1O)N1Cc2ccccc2C1=O (stereo not shown) ) 93.3

* * *

Experiment: Short-term stability in mouse tissue homogenates
Assay type: in vitro ADME
Conditions: kidney homogenate
quantity: recovery at 5 h, 100 ng/ml (%)
Write it as a number; the unit % goes unstated.

# get_value(readout='recovery at 5 h, 100 ng/ml', item= O=C(O)C(c1cc(F)ccc1O)N1Cc2ccccc2C1=O (stereo not shown) ) 99.4

* * *

Experiment: Stability in mouse plasma QC samples
Assay type: in vitro ADME
quantity: recovery at 24 h, 6 ng/ml (%)
Write it as a number; the unit % goes unstated.

# get_value(readout='recovery at 24 h, 6 ng/ml', item= O=C(O)C(c1cc(F)ccc1O)N1Cc2ccccc2C1=O (stereo not shown) ) 101

* * *

Assay: Stability in mouse plasma QC samples
Format: in vitro ADME
quantity: recovery at 5 h, 1500 ng/ml (%)
Write it as a number; the unit % goes unstated.

# get_value(readout='recovery at 5 h, 1500 ng/ml', item= O=C(O)C(c1cc(F)ccc1O)N1Cc2ccccc2C1=O (stereo not shown) ) 102

* * *

Test: Stability in mouse plasma QC samples
Assay type: in vitro ADME
quantity: recovery at 1.5 months, 1500 ng/ml
A complete answer gives the number followed by the unit.

# get_value(readout='recovery at 1.5 months, 1500 ng/ml', item= O=C(O)C(c1cc(F)ccc1O)N1Cc2ccccc2C1=O (stereo not shown) [PIA] ) 90.8%

* * *

Test: Short-term stability in mouse tissue homogenates
Format: in vitro ADME
Settings: liver homogenate
quantity: recovery at 5 h, 100 ng/ml (%)
Write it as a number; the unit % goes unstated.

# get_value(readout='recovery at 5 h, 100 ng/ml', item= O=C(O)C(c1cc(F)ccc1O)N1Cc2ccccc2C1=O (stereo not shown) ) 114

* * *

Test: Short-term stability in mouse tissue homogenates
Type: in vitro ADME
Details: SIWC homogenate
quantity: recovery at 5 h, 100 ng/ml

# get_value(readout='recovery at 5 h, 100 ng/ml', item= O=C(O)C(c1cc(F)ccc1O)N1Cc2ccccc2C1=O (stereo not shown) ) 104%

* * *

Experiment: Stability in mouse plasma QC samples
Format: in vitro ADME
quantity: recovery at 24 h, 1500 ng/ml

# get_value(readout='recovery at 24 h, 1500 ng/ml', item= O=C(O)C(c1cc(F)ccc1O)N1Cc2ccccc2C1=O (stereo not shown) [PIA] ) 100%

Data origin, for the record: paper PMC9786734
